Reported z-score values are given for each entry in this list.
# Test Summary: basal S. cerevisiae growth modulation, no modifier, primary screen, OD600, strain BY4716, 24 h, basal condition (AID 1173)
# Measurement Setup: OD600, 24 h, higher = more signal, called active from +8 up or from −8 down

| Compound | z-score |
| --- | --- |
| O=C1C=C[C@@H](O)[C@@H]2[C@@H]3C(=O)N(C4CCCCC4)C(=O)[C@@H]3CC[C@@H]12 | -1.28 |
| CCOC(=O)CCN1C(=O)[C@H]2[C@H]3[C@H](O)[C@H](O)CC(=NOCC(C)C)[C@@H]3CC[C@H]2C1=O | -0.824 |
| CCN1C(=O)[C@H]2[C@H]3[C@H](O)[C@H](O)CC(=NO[C@@H](C)c4cc(-c5c(C)cc(C)cc5C)no4)[C@@H]3CC[C@H]2C1=O | -2.13 |
| CCOC(=O)[C@H](Cc1ccccc1)NC(=O)CCC1CC(OC(=O)NCc2ccc3c(c2)OCO3)CC2(CCCC(COC(=O)NCCc3ccc(Cl)cc3)O2)O1 (stereo not given in full) | -0.65 |
| CCN1C(=O)[C@H]2[C@H]3[C@H](O)[C@H](O)CC(=NO[C@H](C)c4cn([C@H](CO)Cc5ccccc5)nn4)[C@@H]3CC[C@H]2C1=O | 0.0722 |
| CC(C)CON=C1C[C@@H](O)[C@@H](O)[C@@H]2[C@@H]3C(=O)N(C(C)(C)C)C(=O)[C@@H]3CC[C@@H]12 | -0.322 |
| COC(=O)[C@H](C)NC(=O)CCC1CC(OC(=O)NCc2ccc3c(c2)OCO3)CC2(CCCC(COC(=O)NCCC(C)C)O2)O1 (stereo not given in full) | -0.43 |
| CO[C@@H]1C=CCC(=O)N[C@@H](C)C(=O)OC[C@@H](OC)[C@H](C)C=CCC(=O)OC[C@H]1C | -0.615 |
| CC(=O)OC[C@H]1O[C@@H](ON=C(C)C)[C@H](OC(C)=O)[C@@H](OC(C)=O)[C@@H]1OC(C)=O | 0.515 |
| COc1cccc([C@H](O)Cn2cc(-c3ccc(CON=C(C)C)cc3)nn2)c1 | -0.377 |
| CC(=O)OC[C@H]1O[C@@H](ON=C(C)CCN2CCCCc3nc(C)c(C)cc32)[C@H](OC(C)=O)[C@@H](OC(C)=O)[C@@H]1OC(C)=O | -0.436 |
| CCCNC(=O)OC[C@H]1O[C@H](CCON=C2c3cc(OC)ccc3O[C@H](c3cccc(OC)c3)[C@H]2O)C=C[C@@H]1Oc1ccc(OC)cc1 | 0.668 |
| COc1cccc([C@H]2Oc3ccc(OC)cc3C(=NOCC[C@@H]3C=C[C@H](OC(C)=O)[C@@H](COC(C)=O)O3)[C@@H]2O)c1 | 0.813 |
| O=C(NN=C1C[C@@H](O)[C@@H](O)[C@@H]2[C@@H]3C(=O)N(Cc4ccccc4)C(=O)[C@@H]3CC[C@H]12)OCc1ccccc1 | -0.921 |
| Cc1cc2c(nc1C)CCCCN2CC(O)CN1CCCc2nc(-c3ccc(Br)cc3)ccc21 (stereo not given) | -0.849 |
